Molecular target: caspase 1 (Homo sapiens, UniProt P29466)
Construct: purchased Biomol International, UK
Sequence (P29466 120-297 limits assumed): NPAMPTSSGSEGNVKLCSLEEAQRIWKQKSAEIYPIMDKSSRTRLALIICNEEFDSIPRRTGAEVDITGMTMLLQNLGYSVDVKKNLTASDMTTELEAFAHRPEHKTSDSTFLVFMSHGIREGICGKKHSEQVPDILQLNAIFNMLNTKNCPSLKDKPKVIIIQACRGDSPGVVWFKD
Sequence (P29466 317-404 limits assumed): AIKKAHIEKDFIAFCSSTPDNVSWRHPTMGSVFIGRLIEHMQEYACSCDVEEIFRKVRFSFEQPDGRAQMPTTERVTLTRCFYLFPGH
Assay: Fluorimetric in vitro caspase inhibition assay (7-AMC), caspase 1
Type: biochemical
Settings: recombinant human caspase 1, 10 μM Ac-YVAD-AMC; read-out: Caspase EC50 (nM), 1/6/8: caspase 1
Parameter: EC50

Worked set:
O=C1C(=O)N(Cc2ccc(F)cc2)c2ccc(S(=O)(=O)N3CCC[C@H]3COc3ccncn3)cc21 : > 5000 nM
O=C1C(=O)N(Cc2ccc(F)cc2)c2ccc(S(=O)(=O)N3CCC[C@H]3COc3cc(F)cc(F)c3)cc21 : > 5000 nM
O=C1C(=O)N(Cc2ccc(I)cc2)c2ccc(S(=O)(=O)N3CCC[C@H]3COc3ccccc3)cc21 [Compound 14, reference compound] : > 5000 nM

State, in one line, measured EC50 of O=C1C(=O)N(Cc2ccccc2)c2ccc(S(=O)(=O)N3CCC[C@H]3COc3ccccc3)cc21 [Compound 13, reference compound]
> 5000 nM

State, in one line, measured EC50 of `O=C1C(=O)N(Cc2ccc(F)cc2)c2ccc(S(=O)(=O)N3CCC[C@H]3COc3cccc(F)c3)cc21`
> 5000 nM

State, in one line, measured EC50 of `C#CCN1C(=O)C(=O)c2cc(S(=O)(=O)N3CCC[C@H]3COc3ccc(F)cc3F)ccc21`
> 5000 nM
